experimentalSystem: Carbonic anhydrase 2 (Homo sapiens) (UniProt P00918)
testProtocol: CAII small-molecule binders, profiling panel, biochemical, small-molecule microarray, Alexa647-labelled CAII (AID 1122)
setupConditions: CAII-A647 binding fluorescence, higher = more signal
assayEndpoint: composite z-score

compound	composite z-score
Oc1ccc2cc[n+](Cc3sc4ccccc4c3Cl)cc2c1	0.888
CCCC=C(CCC)[C@@H](NC(=O)c1cccs1)c1ccc(C(F)(F)F)cc1	0.173
NC(=O)NCC#Cc1ccc2c(c1)[C@]1(C(=O)N2)[C@H](c2ccccc2OCCO)N2[C@H](c3ccccc3)[C@H](c3ccccc3)OC(=O)[C@H]2[C@@H]1C(=O)Nc1nc2ccccc2s1	0.237
CN(C)CCCC[C@@H]1NC(=O)[C@@H]2C[C@H](C(=O)NCCCCCCN)[C@H](c3cccc(OCCO)c3)N2C1=O	0.632

q: Fill in: composite z-score of `CCCC[C@@H]1C[C@H]1[C@@H](NC(=O)c1ccccc1)c1ccc(C(=O)OC)cc1` is ___
a: 0.287

q: Can you look up the measured composite z-score of COc1cc(C(O)C2C=CC3C(=O)NC(=O)C3N2Nc2ccccn2)cc(OC)c1OC (stereo not drawn) for me?
a: 0.749

q: Param item = `CN(C)CCCCCCNC(=O)[C@@H]1C[C@@H]2C(=O)N[C@@H](Cc3ccccc3)C(=O)N2[C@@H]1c1ccc(O)cc1` ; retrieve measured composite z-score.
a: 0.425

q: Can you share its composite z-score? I mean this compound: `NC(=O)[C@@H]1[C@H]2C(=O)O[C@H](c3ccccc3)[C@H](c3ccccc3)N2[C@H](c2ccc(O)cc2)[C@@]12C(=O)Nc1ccccc12`
a: 0.75

###

testProtocol: modulators of HCV replicon luciferase signal, primary screen, HCV replication inhibitor project, Huh7 cells, luciferase reporter (AID 1109);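 further: huh7 hepatoma cells harbouring a luciferase neomycin HCV replicon reporter; luciferase luminescence as measure of HCV replicon replication; test concentration not given here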
setupConditions: 48 h, higher = more signal
Form field: z-score (one value per entry).
Lab note: jot down the number only; don't add units.

// below: answered compounds
compound	testResult
C=CCC(OC(C)=O)[C@@H]1[C@@H](N(Cc2cc3ccccc3o2)C(=O)c2cccc3ccccc23)c2cc(OCCCO)ccc2N1C(=O)c1ccc(-c2ccccc2)cc1 (stereo partly specified)	0.0372
COCCOC(=O)N1C(=O)[C@@]2(c3cc(C#CCCO)ccc31)[C@H](C(N)=O)[C@H]1C(=O)O[C@H](c3ccccc3)[C@H](c3ccccc3)N1[C@@H]2c1ccc(O)cc1	0.11
COc1ccc([C@H]2OC[C@@H]3C[C@@H](Cc4ccccc4)C(=O)N32)cc1	-0.859
COCCOC(=O)N1C(=O)[C@@]2(c3ccccc31)[C@H](c1ccccc1OCCO)N1[C@H](c3ccccc3)[C@H](c3ccccc3)OC(=O)[C@H]1[C@@H]2C(=O)N1CCN(c2ncccn2)CC1	-2.73
O=C1C[C@]2(c3ccc([N+](=O)[O-])cc3)C(=O)N(CC(F)(F)F)c3cc(CO)ccc3[C@H]2N1C1CCCCC1	0.909

q: What value of measured z-score is listed for `COC(=O)[C@@]1(Cc2ccc(F)cc2)[C@H]2c3cc(C(=O)N4CCCC4)n(CCCNc4ncc(C(F)(F)F)cc4Cl)c3C[C@H]2CN1C(=O)c1ccccc1` ?
a: -1.48

###

Parameter: z-score. Scope: all listed entries.
testProtocol: S. cerevisiae growth modulation with rapamycin, primary screen, strain BY4716, OD600, 96 h (AID 1091); further: test concentration not given here
setupConditions: higher = more signal, called active from +8 up or from −8 down
// keep it numeric: no unit symbol after the value

q: Could you share which z-score value was measured for `COCCOC(=O)N1C(=O)[C@@]2(c3ccccc31)[C@H](c1ccccc1OCCO)N1[C@H](c3ccccc3)[C@H](c3ccccc3)OC(=O)[C@H]1[C@@H]2C(=O)N1CCN(c2ncccn2)CC1` ?
a: 8.88
